Exercise: for every item that follows, state its recorded residual activity.
- Target system: Ribosomal protein S6 kinase beta-1 (Homo sapiens)
- Setup conditions: at 10 µM
Write the quantity with the unit trailing the number.

Query: Which value of residual activity has been reported for CC(C)(C)c1nc2c3ccc(F)cc3c3c(=O)[nH]ccc3c2[nH]1 in the records?
Response: 44%

Query: Same lookup for Nc1ncnc2c1cnn2-c1ccccc1 , please.
Response: 63%

Query: Same lookup for COc1cc2c(cc1OC)-c1n[nH]c(Nc3cccc(F)c3)c1C2 , please.
Response: 79%

Query: Same lookup for O=c1cc(N2CCOCC2)oc2c(-c3ccccc3)cccc12 , please.
Response: 63%

Query: Same lookup for Oc1cccc(-c2nc(N3CCOCC3)c3oc4ncccc4c3n2)c1 , please.
Response: 84%

Query: Same lookup for O=C(c1cc2cc(O)ccc2[nH]1)c1cc2cc(O)ccc2[nH]1 , please.
Response: 18%

Query: Same lookup for O=c1cc(N2CCNCC2)oc2c(-c3ccccc3)cccc12 , please.
Response: 65%

Query: Same lookup for Nc1nccc(-c2c(-c3ccc(F)cc3)ncn2C2CCNCC2)n1 , please.
Response: 49%

Query: Same lookup for CC(C)N(CCC(=O)c1ccc2ccccc2c1)Cc1ccccc1 , please.
Response: 53%

Query: Same lookup for Cn1sc(=O)n(Cc2ccccc2)c1=O , please.
Response: 57%

Query: Same lookup for Nc1ncnc2[nH]nc(Nc3ccc(F)cc3)c12 , please.
Response: 61%

Query: Same lookup for CC(C)c1nn(-c2c(Cl)cccc2Cl)c2nc(Cc3ccc(OCCO)cc3)[nH]c(=O)c12 , please.
Response: 59%

Query: Same lookup for COc1cc2nccc(Oc3ccc(NC(=S)NC(=O)c4ccccc4C)cc3)c2cc1OC , please.
Response: 61%

Query: Same lookup for Fc1ccc(-c2nc3n(c2-c2ccncc2)CCS3)cc1 , please.
Response: 62%

Query: Same lookup for O=C1Nc2ccc(Cl)cc2/C1=C/c1cc(Cl)c(O)c(Cl)c1 , please.
Response: 40%

Query: Same lookup for O=C(NC(NC(=S)Nc1ccc(F)c([N+](=O)[O-])c1)C(Cl)(Cl)Cl)C(c1ccccc1)c1ccccc1 (stereo not given) , please.
Response: 99%

Query: Same lookup for CC(C)(C)n1nc(Cc2cccc3ccccc23)c2c(N)ncnc21 , please.
Response: 96%

Query: Same lookup for O=C1NC(=O)C(c2cn(CCCO)c3ncccc23)=C1c1cnccn1 , please.
Response: 76%

Query: Same lookup for COc1ccc(-c2cnc3c(-c4ccsc4)cnn3c2)cc1 , please.
Response: 66%

Query: Same lookup for CC(C)[C@H](CO)Nc1nc(Nc2cc(N)cc(Cl)c2)c2ncn(C(C)C)c2n1 , please.
Response: 39%

Query: Same lookup for Cn1c2ccccc2c2c3c(c4c5ccccc5n(CCC#N)c4c21)CNC3=O , please.
Response: 4%

Query: Same lookup for O=C1Cc2c([nH]c3ccc([N+](=O)[O-])cc23)-c2ccccc2N1 , please.
Response: 103%

Query: Same lookup for O=C1Cc2c([nH]c3ccc(Br)cc23)-c2ccccc2N1 , please.
Response: 53%

Query: Same lookup for O=C1NC(=O)C(c2c[nH]c3ccccc23)=C1c1c[nH]c2ccccc12 , please.
Response: 5%

Query: Same lookup for COc1ccc(COc2ccc(Cc3cnc(N)nc3N)cc2OC)cc1 , please.
Response: 51%

Query: Same lookup for NC(=O)c1ccc(-c2nc(-c3ccc4c(c3)OCCO4)c(-c3ccccn3)[nH]2)cc1 , please.
Response: 86%

Query: Same lookup for O=C1C(Cl)=C(N2C(=O)CCC2=O)C(=O)c2ccccc21 , please.
Response: 67%

Query: Same lookup for O=c1cc(N2CCOCC2)oc2c1ccc1ccccc12 , please.
Response: 41%

Query: Same lookup for N#C/C(=C1/Nc2ccccc2S1)c1ccnc(NCCc2cccnc2)n1 , please.
Response: 39%

Query: Same lookup for CCOc1nc(NC(=O)Cc2cc(OC)ccc2OC)cc(N)c1C#N , please.
Response: 100%

Query: Same lookup for O=S(=O)(NCCNC/C=C/c1ccc(Br)cc1)c1cccc2cnccc12 , please.
Response: 5%

Query: Same lookup for O=C1Nc2ccccc2/C1=C\c1c(Cl)[nH]c2ccccc12 , please.
Response: 54%

Query: Same lookup for c1ccc(-c2cnc(Nc3ccc(OCCN4CCCC4)cc3)s2)cc1 , please.
Response: 52%

Query: Same lookup for O=C(c1ccccc1)c1ccc(N2CCOCC2)cc1O , please.
Response: 53%

Query: Same lookup for CCN(CC)CCNC(=O)c1c(C)[nH]c(/C=C2\C(=O)Nc3ccc(Cl)cc32)c1C , please.
Response: 4%
